tested on: HT29 colon; assay: NCI-60 one-dose screen, 48 h (100 = growth as untreated, 0 = no growth, -100 = all killed); conditions: 10 µM unless noted
The panel holds about 83,000 compounds, 20% with a hit somewhere; the sample as a whole holds those more often.
Reported growth by item:
assay endpoint: growth (%)

• c1n[nH]cc1-c1nc2ccc3[nH]ncc3c2c2c1CCCC2 = 24
• CC1(C)CC[C@]2(C(=O)O)CC[C@]3(C)C(=CC[C@@H]4[C@@]5(C)CC/C(=N\OCCC#N)C(C)(C)[C@@H]5CC[C@]43C)[C@@H]2C1 = 109
• Cc1ccc2c(c1)Oc1nc(N)c(C#N)c(N)c1C2Sc1ccc(F)cc1 (stereo not given) = -38.6
• N/C(=N\C(N)=N\c1nc2ccccc2s1)c1ccncc1Cl = 18.8
• Nn1c(N/N=C/c2nc3ccccc3s2)n[nH]c1=S = 112
• Cn1ccnc1C(=O)/C=C/c1ccc(NC(=O)c2c(F)c(F)c(F)c(F)c2F)cc1 = 112
• CC(C)(C)CC(C)(C)n1nnnc1C(Nc1nccs1)c1cc2cccc3ccc4cccc1c4c32 (stereo not given) = 104
• c1ccc(C(c2nc3ncncc3[nH]2)N2CSc3nc4ccccc4n3C2)cc1 (stereo not given) = 107
• NS(=O)(=O)c1ccc(Nc2nc(N/N=C/CCc3ccccc3)nc(Nc3ccccc3)n2)cc1 = 107
• CCO/C=N/C1=C(C#N)C(c2ccc(Cl)cc2)c2sc3c(CC)cccc3c2O1 (stereo not given) = 10.7

---

test system: PC-3 prostate; assay: NCI-60 one-dose screen, 48 h; settings: 10 µM unless noted
This is part of a sample that, as a whole, favours compounds with a hit. Of some 83,000 tested, about 20% had one in any assay. Calls of active or inactive are those of the source. Rule for the calls: active = growth percent below 10; inactive = the rest.
Outcome codes: T (active), F (inactive)

• C/C(=N\O)[C@H]1C[C@]23CC[C@]4(C)[C@H](CC[C@@H]5[C@@]6(C)CC/C(=N/O)C(C)(C)[C@@H]6CC[C@]54C)[C@H]2[C@H](C)C1(C)OC3 = F
• N/C(=N\C(N)=N\c1nc2ccccc2s1)c1cccc(F)c1 = F
• O=C(CSc1nc2ccccc2c(=O)n1-c1ccccc1)Nc1ccc(-c2nc3ccc([N+](=O)[O-])cc3[nH]2)cc1 = F
• O=C(NCCN1CCCC1)c1ccc(-c2nc3ccc4[nH]ncc4c3c3c2CCCC3)cc1 = T
• Cc1ccc(NC(=O)c2ccc(CN3CCN(C)CC3)cc2)cc1Oc1ccc(-c2[nH]nc3ncnc(N)c23)cc1 = F
• C=CCn1c(SCC(=O)Nc2ccc(C(=O)/C=C/c3ccc(C)cc3)cc2)nnc1-c1c[nH]c2ccccc12 = F
• O=C(Nc1cccc(Cl)c1)Nc1nc2ccc([N+](=O)[O-])cc2o1 = T
• Nc1cc(F)ccc1NC(=O)c1ccc(NC(=O)C/C=C/c2cccnc2)cc1 = F
• CCNC(=O)N1CCc2cc(OC)c(OCCc3ccc(OC)cc3)cc2C1c1ccc(OC)cc1C (configuration not stated) = F
• COc1cccc2cc(-c3cc4ccccc4[nH]3)/c(=N\NC(=O)c3ccc(Cl)cc3)oc12 = F
• CN1CCN(Cc2ccc(NC(=O)c3cncc(C#Cc4cnc5ccc(N6CCN(C)CC6)nn45)c3)cc2C(F)(F)F)CC1 = T
• O=C(CSc1nnc(-c2ccc(Cl)cc2)n1-c1ccccc1)Nc1ccc(Br)cc1 = F
• Cn1ccnc1C(=O)/C=C/C=C/c1ccc(C(=O)Nc2ccc(F)cc2)cc1 = F
• Cc1ccc2sc3c(c2c1)OC(N)=C(C#N)C3c1cccc(F)c1 (configuration not stated) = T
• O=C(Nc1ccc(Br)cc1)Nc1nc2ccc([N+](=O)[O-])cc2s1 = T
• CCO/C=N/C1=C(C#N)C(c2ccc(Cl)cc2)c2sc3c(C)cccc3c2O1 (configuration not stated) = F
• Nc1nc(-c2cccc([N+](=O)[O-])c2)c(N=Nc2ccc([N+](=O)[O-])cc2Cl)s1 = T
• CN1CCN(c2ccc(/C=N/n3cnc4oc(-c5ccccc5)cc4c3=N)cc2)CC1 = F
• C#Cc1ccc(C(=O)NCc2ccc(/C=C/C(=O)c3nccn3C)cc2)cc1 = F
• Cc1cc(S(=O)(=O)N(C)C)cc(NCC(=O)NC(=O)NCC(C)C)c1C = F
• CC(C)(C)c1ccc(CC(=O)Nc2sc3c(c2C(N)=O)CCC(=O)C3)cc1 = F
• COc1ccccc1-n1cc(C#N)c(N)c1C(=O)c1ccc(Br)cc1 = F
• CN1CCN(c2nc(-c3csc(-c4ccccc4)n3)cc3ccccc23)CC1 = F
• C#C[C@]1(O)CC[C@H]2[C@@H]3CC=C4c5sc(-c6ccc7c(c6)OCO7)nc5CC[C@]4(C)[C@H]3CC[C@@]21C = T
• CCCn1cnc2c(c1=N)C(c1ccc(OC)cc1)c1sc3c(C)cccc3c1O2 (configuration not stated) = T
• Nc1ccccc1NC(=O)c1ccc(NC(=O)C/C=C/c2cccnc2)cn1 = F
• COc1ccc2c(c1)c(-c1cc(N)n3nc(-c4cn(C)c5ccc(OC)cc45)cc3n1)cn2C = F
• COc1ccc2c(c1)c(CC(=O)[Se]CC#N)c(C)n2C(=O)c1ccc(Cl)cc1 = T
• CCNC(=O)N1CCc2cc(OC)c(OCCc3ccc(OC)cc3)cc2C1c1ccc(Cl)cc1C (configuration not stated) = F
• Cn1cc(CNc2nc3ccc(OC/C(=C/F)CN)cc3o2)ccc1=O = F
• COc1cc2oc(-c3cccc(C(=O)N[C@@H](CC(C)C)C(=O)OC(C)(C)C)c3)cc(=O)c2c(OC)c1OC = F
• Nc1nc(Nc2ccccc2SSc2ccccc2Nc2nc(N)nc(-c3ccc4ccccc4c3)n2)nc(-c2ccc3ccccc3c2)n1 = F
• CCOc1ccc(C(=O)Nc2ncc(Cc3ccc(F)cc3)s2)cc1 = F
• N/C(=N\C(N)=N\c1nc2ccccc2s1)c1ccncc1Cl = F
• N=c1c2cc(-c3ccccc3)oc2ncn1/N=C/c1ccc(Cl)cc1 = F
• CC(C)C[C@@H]1N[C@@]2(C(=O)Nc3ccccc32)[C@@H](c2ccc(F)cc2)[C@@H]1C(=O)c1ccc(O)cc1 = F
• COc1ccc2c(c1)c(CC(=O)[Se]CC(=O)O)c(C)n2C(=O)c1ccc(Cl)cc1 = F

---

test system: NCI-H226 lung; assay: NCI-60 one-dose screen, 48 h (100 = growth as untreated, 0 = no growth, -100 = all killed); conditions: 10 µM unless noted
The panel holds about 83,000 compounds, 20% with a hit somewhere; the sample as a whole holds those more often.
assay endpoint: growth (%)

* CN(C)C(=O)c1cc(-c2ccc3ncnc(NCc4ccccc4)c3c2)cnc1N | 91.8
* O=C1[C@H]2Cc3c([nH]c4ccccc34)[C@@H](c3ccc(Br)cc3)N2C(=O)CN1C1CCN(CC2CCCCC2)CC1 | -3.54
* C#C[C@]1(O)CC[C@H]2[C@@H]3CC=C4c5sc(-c6ccc(C)cc6)nc5CC[C@]4(C)[C@H]3CC[C@@]21C | 99.3
* O=C(CCn1cc[n+](CC(=O)c2ccc(-c3ccccc3)cc2)c1)Nc1cccc2cccnc12 | 83.3
* COc1ccc(N2C(=O)c3cc(Cl)ccc3NC2SCc2ccccc2)cc1 (stereo not given) | 96.2

---

tested on: NCI/ADR-RES ovarian; experiment: NCI-60 one-dose screen, 48 h (100 = growth as untreated, 0 = no growth, -100 = all killed); settings: 10 µM unless noted
Compounds without any hit were thinned out: in the full panel of roughly 83,000, 20% have a hit.
Assign yes (1) whenever growth does not fall below 70%; assign no (0) whenever it does.

* COc1ccc(/C=N/NC(=O)c2cn(C3CC3)c3c(OC)c(N4CC5CCCNC5C4)c(F)cc3c2=O)cc1 (stereo not given) | yes (1)
* CC1(C)CC[C@]2(C(=O)O)CC[C@]3(C)C(=CC[C@@H]4[C@@]5(C)CC/C(=N\OCCC#N)C(C)(C)[C@@H]5CC[C@]43C)[C@@H]2C1 | yes (1)
* CNc1ncc2cc(-c3ccc(-c4ncccc4F)cc3Cl)c(=O)n(CC3OCC(N)CO3)c2n1 (stereo not given) | yes (1)
* O=C(Cn1c(-c2ccccc2)nc2cc(Cl)c(Cl)cc21)N=Nc1c(O)[nH]c2ccc(Cl)cc12 | yes (1)
* O=C(Nc1nc2ccc([N+](=O)[O-])cc2s1)Nc1ccccc1Br | no (0)
* C#CC(=O)N(c1ccc(OC)cc1OC)C(C(=O)NCC(=O)OCC)c1cccs1 (stereo not given) | yes (1)
* Cc1nc(-c2ccccc2O)ccc1C(=O)N=Nc1c(O)[nH]c2ccc(Br)cc12 | yes (1)
* Nc1ccccc1NC(=O)c1ccc(NC(=O)C/C=C/c2cccnc2)cc1 | no (0)
* CCC(CC)N1C(=O)/C(=c2\sc3n(c2=O)NC2C(N=3)N(CC)C(=O)N2CC)c2ccccc21 (stereo not given) | no (0)
* Brc1ccccc1/C=N/Nc1nc(N/N=C/c2ccccc2Br)nc(N2CCOCC2)n1 | yes (1)
